Data provenance is PubChem BioAssay (NCI).

Tested on: DLD-1 colon
Protocol: NCI tumour cell line growth inhibition, 48 h
Reported Metric: TGI

The following compounds have reported results that may help.
| Compound | Assayed System | Result |
| --- | --- | --- |
| CC1=CC=C2C(C)(C)CC[C@@H]3OC(=O)[C@H]1[C@]23C | DLD-1 colon | > 100 µM |
| CCC1CN2CCc3cc(OC)c(OC)cc3C2CC1CC1c2cc(OC)c(OC)cc2CCN1C(=O)C(Cc1c[nH]c2ccccc12)NC(=O)OC(C)(C)C (centres undefined) | DLD-1 colon | 27.4 µM |
| Cc1ccc(NCCO)cc1 | DLD-1 colon | > 100 µM |
| N#CCC(=O)N/N=C(/C(=O)Nc1ccccc1)C1C(=O)N(c2ccccc2)N=C1N (centres undefined) | DLD-1 colon | > 100 µM |
| NC(=S)N/N=C/c1cn(CCCl)c2ccccc12 | DLD-1 colon | > 100 µM |

Turning to the following compound.
[ask] Return TGI for the following compound: Cc1cc2c(=O)cc(-c3ccc(Cl)cc3Cl)oc2c(C(=O)O)c1C
[reply] > 100 µM
